Reference for the values: paper PMC9661477

# Method: stability in human plasma, LC-MS/MS
# Assay type: in vitro ADME
# Test parameters: reference compound, read-out: half-life (t1/2)
Endpoint label: half-life at 1 μM

## Input State the recorded half-life at 1 μM for this entry: CCOC(=O)C(C)c1cccc(C(=O)c2ccccc2)c1 (stereo not shown) [KEE, ketoprofen ethyl ester]
## Output ≤ 2 h

###

# System under test: UniProt Q16790
# Method: stopped-flow CO2 hydrase assay, hCA IX
# Test parameters: read-out: Ki hCA IX; stopped-flow technique, mean from three different assays
pKi: −log10 of the molar value.
Rule: pKi under 8 gives false (0), otherwise true (1).

## Input Please tell me: is the compound `COc1cc(C(=O)OCCCCCN(CCCOC(=O)c2c3ccccc3cc3ccccc23)CCCOc2ccc3ccc(=O)oc3c2)cc(OC)c1OC` at or over 8 in terms of pKi?
## Output false (0)

## Input Again, but for `COc1cc(/C=C/C(=O)OCCCCCCCN(CCCOC(=O)c2cc(OC)c(OC)c(OC)c2)CCCOc2ccc3ccc(=O)oc3c2)cc(OC)c1OC`
## Output true (1)

## Input Again, but for `COc1cc(/C=C/C(=O)OCCCN(CCCCCOC(=O)c2cc(OC)c(OC)c(OC)c2)CCCOc2ccc3ccc(=O)oc3c2)cc(OC)c1OC`
## Output false (0)

## Input Again, but for `COc1cc(/C=C/C(=O)OCCCCCN(CCCOC(=O)/C=C/c2cc(OC)c(OC)c(OC)c2)CCCOc2ccc3ccc(=O)oc3c2)cc(OC)c1OC`
## Output false (0)

## Input Again, but for `COc1cc(C(=O)OCCCN(CCCCCOC(=O)c2c3ccccc3cc3ccccc23)CCCOc2ccc3ccc(=O)oc3c2)cc(OC)c1OC`
## Output false (0)
